- study_system: Human serum albumin (HSA) glycation by fructose (AGE-HSA) (Homo sapiens)
- Construct: purchased Sigma Aldrich, St. Louis, Mo., USA
- Sequence (P02768 25-609): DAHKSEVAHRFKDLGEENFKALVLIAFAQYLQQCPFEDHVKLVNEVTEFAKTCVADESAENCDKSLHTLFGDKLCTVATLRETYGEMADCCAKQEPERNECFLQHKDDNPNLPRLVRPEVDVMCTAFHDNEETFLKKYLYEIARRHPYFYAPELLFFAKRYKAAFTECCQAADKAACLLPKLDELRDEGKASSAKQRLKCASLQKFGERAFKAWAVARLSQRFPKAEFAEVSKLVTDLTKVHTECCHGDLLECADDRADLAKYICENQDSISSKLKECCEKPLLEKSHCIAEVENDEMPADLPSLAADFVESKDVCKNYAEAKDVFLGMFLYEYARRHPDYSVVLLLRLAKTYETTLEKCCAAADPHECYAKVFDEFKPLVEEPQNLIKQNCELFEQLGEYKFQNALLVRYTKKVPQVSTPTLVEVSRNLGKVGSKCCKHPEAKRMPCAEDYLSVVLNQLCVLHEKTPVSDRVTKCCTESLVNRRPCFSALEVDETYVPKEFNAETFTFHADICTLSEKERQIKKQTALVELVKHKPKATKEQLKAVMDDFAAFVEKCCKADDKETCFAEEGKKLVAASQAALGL
- assay_remarks: In-vitro antiglycation activity against HSA glycation (fluorescence-based antiglycation assay)
- Format: biochemical
readout_label: pIC50
Numbers only, as −log10 of the molar value.

{"columns": ["compound", "pIC50"],
 "data": [
  ["O=C(O)c1ccccc1Nc1ccc(Cl)cc1 [Compound 5, 2-(4-Chloroanilino)benzoic acid]", 3.53],
  ["O=C(O)c1ccccc1Nc1ccc(F)cc1F [Compound 10, 2-(2,4-Difluoroanilino)benzoic acid]", 3.25],
  ["COc1cc(OC)c(Nc2ccccc2C(=O)O)cc1Cl [Compound 3]", 3.58],
  ["O=C(O)c1ccccc1Nc1cc(Cl)cc([N+](=O)[O-])c1 [Compound 7, 2-(3-Chloro-5-nitroanilino)benzoic acid]", 3.78],
  ["O=C(O)c1ccccc1Nc1ccc(Cl)cc1[N+](=O)[O-] [Compound 2, 2-(4-Chloro-2-nitroanilino)benzoic acid]", 3.86],
  ["O=C(O)c1ccccc1Nc1ccccc1Cl [Compound 6, 2-(2-Chloroanilino)benzoic acid]", 3.37],
  ["Cc1cc(C)cc(Nc2ccccc2C(=O)O)c1 [Compound 13, 2-(3,5-Dimethylanilino)benzoic acid]", 3.34],
  ["O=C(O)c1ccccc1Nc1cc(Cl)c([N+](=O)[O-])cc1Cl [Compound 14]", 4.07],
  ["O=C(O)c1ccccc1Nc1cc([N+](=O)[O-])ccc1Cl [Compound 9, 2-(2-Chloro-5-nitroanilino)benzoic acid]", 3.50],
  ["COc1cccc(Nc2ccccc2C(=O)O)c1 [Compound 18, 2-(3-Methoxyanilino)benzoic acid]", 3.40]
]}

Provide reported pIC50 for each item, in the same order as listed.
1. O=C(O)c1ccccc1Nc1ccc(Cl)c([N+](=O)[O-])c1 [Compound 4, 2-(4-Chloro-3-nitroanilino)benzoic acid]
2. O=C(O)c1ccccc1Nc1ccc(Cl)c(Cl)c1 [Compound 11, 2-(3,4-Dichloroanilino)benzoic acid]
3. Cc1ccc(Cl)cc1Nc1ccccc1C(=O)O [Compound 8, 2-(5-Chloro-2-methylanilino)benzoic acid]
4. CCCCc1ccc(Nc2ccccc2C(=O)O)cc1 [Compound 12, 2-(4-Butylanilino)benzoic acid]

1: 3.58; 2: 3.22; 3: 3.39; 4: 3.39

Quick request: pIC50 for each listed item, please.
1. O=C(O)c1ccccc1Nc1cc(Cl)ccc1Cl [Compound 15, 2-(2,5-Dichloroanilino)benzoic acid]
2. O=C(O)c1ccccc1Nc1cc(Cl)ccc1[N+](=O)[O-] [Compound 17, 2-(5-Chloro-2-nitroanilino)benzoic acid]

[3.17, 3.82]
